biological target: HLA-B*27:05; assay: IEDB peptide-MHC binding, purified MHC/direct/fluorescence; filed as Kd, often an IC50 or EC50 that approximates it; bounds were set here for any values at or beyond the usual limits of such assays; conditions: source organism: Lake Victoria marburgvirus - Popp
pKd: −log10 of the molar value.
MEASURED_ATTRIBUTE: pKd

FLMRNAIQY has a reported pKd of ≤ 4.70

====

molecular target: HLA-A*02:03; assay: IEDB peptide-MHC binding, purified MHC/competitive/radioactivity; filed as Kd, often an IC50 or EC50 that approximates it; bounds were set here for any values at or beyond the usual limits of such assays; conditions: source organism: Human immunodeficiency virus type 1 (SF33 ISOLATE)
MEASURED_ATTRIBUTE: pKd
The value called pKd is obtained by taking minus log10 of the concentration in mol/L.

ALIRILQQL has a reported pKd of 8.52

====

biological target: HLA-B*07:02; assay: IEDB peptide-MHC binding, purified MHC/competitive/fluorescence; filed as Kd, often an IC50 or EC50 that approximates it; bounds were set here for any values at or beyond the usual limits of such assays; conditions: source organism: Influenza A virus (A/duck/Bavaria/1/1977(H1N1))
MEASURED_ATTRIBUTE: pKd
The value called pKd is obtained by taking minus log10 of the concentration in mol/L.

LPFQNIHPI has a reported pKd of 6.98

====

biological target: HLA-B*39:01; experiment: IEDB peptide-MHC binding, purified MHC/competitive/fluorescence; filed as Kd, often an IC50 or EC50 that approximates it; bounds were set here for any values at or beyond the usual limits of such assays; conditions: source organism: Salmonella enterica subsp. enterica serovar Typhi
MEASURED_ATTRIBUTE: pKd
The value called pKd is obtained by taking minus log10 of the concentration in mol/L.

WPDVFSVSV has a reported pKd of 8.42

====

target: HLA-A*02:01; assay: IEDB peptide-MHC binding, purified MHC/competitive/radioactivity; bounds were set here for any values at or beyond the usual limits of such assays; conditions: source organism: Toxoplasma gondii
MEASURED_ATTRIBUTE: IC50 (µM)
Enter your answer as a number in µM; do not include the unit.

AVVSLLRLLK has a reported IC50 of 11.3

====

biological target: HLA-A*03:01; test: IEDB peptide-MHC binding, purified MHC/competitive/radioactivity; filed as Kd, often an IC50 or EC50 that approximates it; bounds were set here for any values at or beyond the usual limits of such assays; details: source organism: Dengue virus 1 Brazil/97-11/1997
MEASURED_ATTRIBUTE: Kd (nM)
Enter your answer as a number in nM; do not include the unit.

Below, 3 sequences whose answers are already recorded.
TLSLDYAWK
181
VSTGSQLAK
127
TLFVWYFWQK
24.6

LMSAAIKDSK has a reported Kd of 66.7

RCLKPVILK has a reported Kd of 156

====

molecular target: HLA-B*58:01; test: IEDB peptide-MHC binding, purified MHC/direct/fluorescence; filed as Kd, often an IC50 or EC50 that approximates it; bounds were set here for any values at or beyond the usual limits of such assays; conditions: source organism: Rickettsia sibirica
MEASURED_ATTRIBUTE: pKd
The value called pKd is obtained by taking minus log10 of the concentration in mol/L.

ASWMALGVY has a reported pKd of 5.88
